This collection of values is drawn from paper PMC12069340.

CC50 at 48 h for assorted molecules
protocolText: Validation screen: cytotoxicity without viral infection
conditionSummary: human, uninfected U937 cells
Counter-ions that a name gives are not always drawn.

Known CC50 at 48 h results, listed for orientation:
>>> valueobserved("CN1[C@@H]2CC[C@H]1C[C@@H](OC(c1ccccc1)c1ccccc1)C2 [Benztropine mesylate]")
"> 80 µM"
>>> valueobserved("Cc1ccc(N(CC2=NCCN2)c2cccc(O)c2)cc1 [Phentolamine Mesylate]")
"> 80 µM"

Proceeding to the next molecule to report its CC50 at 48 h.
Recorded CC50 at 48 h for CCCN1C[C@H](CSC)C[C@@H]2c3cccc4[nH]cc(c34)C[C@H]21 [Pergolide mesylate] , please?
> 80 µM
